system: DU-145 prostate; assay: NCI-60 one-dose screen, 48 h; settings: 10 µM unless noted
Compounds without any hit were thinned out: in the full panel of roughly 83,000, 20% have a hit. The source made the active and inactive calls. How the source made its calls: active means growth percent below 10; inactive means the rest.
The reply should be one of these categories: active, inactive

Exam item: Recorded call for N#Cc1c(-c2ccc(Cl)cc2)nc(SCC(=O)NC2=NN=C(c3ccccc3)CS2)[nH]c1=O ?
Marked response: inactive

Exam item: Recorded call for Oc1ccc(CN2CCC(N3CCCCC3)CC2)c2cccnc12 ?
Marked response: inactive

Exam item: Recorded call for N#Cc1c(-c2ccccc2)cc(-c2ccccc2)n(CCCCCC(=O)Nc2ccccc2N)c1=O ?
Marked response: inactive

Exam item: Recorded call for COc1ccc(C(=O)Nc2cccc(C3CC(=O)c4c(cc(OC)c(OC)c4OC)O3)c2)cc1 (stereo not given) ?
Marked response: active

Exam item: Recorded call for O=C(Cn1c(=O)sc2ccccc21)NNS(=O)(=O)c1ccccc1[N+](=O)[O-] ?
Marked response: inactive

---

test system: SF-268 CNS; assay: NCI-60 one-dose screen, 48 h; conditions: 10 µM unless noted
About 83,000 compounds went through this panel and 20% of them were active in at least one assay; those are over-represented in the sample as a whole. Activity calls are given as the source filed them. Rule for the calls: active = growth percent below 10; inactive = the rest.
The reply should be one of these categories: active, inactive

Exam item: Recorded call for Cc1nc2sc(C(=O)Nc3cccc(Cl)c3C)c(N)c2cc1C(=O)c1ccccc1 ?
Marked response: inactive

Exam item: Recorded call for N#C/C(=C\c1ccc(-c2ccc(Cl)cc2)o1)C(=O)Nc1ncc(Cc2ccc(Cl)cc2)s1 ?
Marked response: inactive

Exam item: Recorded call for C#CCOc1ccc2ncnc(Nc3cccc(NC(=O)C=C)c3)c2c1 ?
Marked response: inactive

Exam item: Recorded call for COc1ccc(-c2nnc(-c3ccc4c(c3)nc(-c3ccncc3)n4C3CCCCC3)o2)cc1 ?
Marked response: inactive

Exam item: Recorded call for CCCCNC(=O)Oc1ccc(/C(=C(/CC)Cc2ccccc2)c2ccc(OCCN3CCCCCC3)cc2)cc1 ?
Marked response: inactive

Exam item: Recorded call for COCCn1c(-c2csc(-c3cn(C)c4ccc(OC)cc34)n2)cc2cccnc21 ?
Marked response: inactive

Exam item: Recorded call for C/C(Nc1ccc(Cl)c(Cl)c1)=C1\CCOC1=O ?
Marked response: inactive

Exam item: Recorded call for CCOC(=O)c1c2c(n3ccc(C)cc13)C(=O)c1ccccc1C2=O ?
Marked response: inactive

Exam item: Recorded call for CO[C@H]1/C=C(/C)CCC[C@H](C)[C@H](O)[C@@H](C)C(=O)C(C)(C)[C@@H](O)CC(=O)O[C@@H]1/C(C)=C/c1csc(C)n1 ?
Marked response: inactive

Exam item: Recorded call for C#Cc1ccc(NC(=O)c2ccc(/C=C/C(=O)c3nccn3C)cc2)cc1 ?
Marked response: active

Exam item: Recorded call for CCC(=C(c1ccc(OCCN2CCCC2)cc1)c1ccc(OCCN2CCCC2)cc1)c1ccc(Cl)cc1 ?
Marked response: inactive

Exam item: Recorded call for COc1ccc(OC)c(-c2c(C#N)c(-c3cccs3)nc3c2c(-c2ccccc2)nn3-c2ccccc2)c1 ?
Marked response: inactive

Exam item: Recorded call for O=C(NCc1ccccc1)Nc1ccccc1CNc1nc(Nc2ccc(OCCN3CCCC3)cc2)ncc1Cl ?
Marked response: inactive

Exam item: Recorded call for Cc1ccccc1Cn1cnc2ccc(-c3cc(NC(=O)c4ccc(NC5CCN(C)CC5)cc4)n[nH]3)cc21 ?
Marked response: inactive

Exam item: Recorded call for COc1ccc(CC(C#N)c2cc3ccccc3[nH]2)cc1 (configuration not stated) ?
Marked response: inactive

Exam item: Recorded call for C#CCOc1cccc(Nc2ncnc3ccc(NC(=O)CCl)cc23)c1 ?
Marked response: active

Exam item: Recorded call for Oc1c(Cl)cc(Cl)c2ccc(Cn3cc(-c4cc(C(F)(F)F)cc(C(F)(F)F)c4)nn3)nc12 ?
Marked response: inactive

Exam item: Recorded call for O=C(CN1C(=O)CCC1=O)Nc1ncc(Cc2ccc(F)cc2)s1 ?
Marked response: inactive

Exam item: Recorded call for CO/N=C(/C)c1ccc(NC(=O)CSc2nnc(-c3ccncc3)n2-c2ccccc2)cc1 ?
Marked response: inactive

Exam item: Recorded call for C=C(C)[C@@H]1CC[C@]2(C(=O)NCC#CCN3CCN(C)CC3)CC[C@]3(C)[C@H](CC[C@@H]4[C@@](C)(CCC#N)[C@H](C(=C)C)CC[C@]43C)[C@@H]12 ?
Marked response: inactive

Exam item: Recorded call for C=CCn1c(SCC(=O)Nc2ccc(C(=O)/C=C/c3cc4cc(OC)ccc4nc3Cl)cc2)nnc1-c1ccc(Br)cc1 ?
Marked response: inactive

Exam item: Recorded call for O=C1Nc2ccc(Br)cc2/C1=N/c1n[nH]c(=S)s1 ?
Marked response: inactive

Exam item: Recorded call for OCCCC1CCN(C(Cc2ccccc2)c2ccccc2)CC1 (configuration not stated) ?
Marked response: inactive

Exam item: Recorded call for CCCCCC(=O)OCC(=O)O[C@@H]1C[C@]2(C(C)C)O[C@@]1(C)[C@@H]1CC[C@@H](C)[C@H]1[C@@H]2OC(=O)/C=C/c1ccccc1 ?
Marked response: inactive

Exam item: Recorded call for CCOc1ccc(NC(=O)CSc2oc(-c3ccccc3)nc2S(=O)(=O)c2ccc(F)cc2)cc1 ?
Marked response: inactive

Exam item: Recorded call for CCc1n(Cc2ccc3ccccc3c2)cc[n+]1Cc1ccc2ccccc2c1 ?
Marked response: inactive

Exam item: Recorded call for Cn1cc(-c2csc(-c3ccc(Cl)cc3)n2)c2cccnc21 ?
Marked response: active

Exam item: Recorded call for Nc1ncnc2c1N=C(c1ccc(Cl)cc1)CC(c1ccc3c(c1)OCO3)N2 (configuration not stated) ?
Marked response: inactive

Exam item: Recorded call for COc1cc(-c2csc(NC(=O)c3cc(-n4cnc(C)c4)cc(C(F)(F)F)c3)n2)cc(OC)c1OC ?
Marked response: inactive

Exam item: Recorded call for O=[N+]([O-])c1ccc(N/N=C(/C(=N/Nc2ccc([N+](=O)[O-])cc2)c2ccccc2)c2ccccc2)cc1 ?
Marked response: inactive

Exam item: Recorded call for CCN1C(=O)N(CC)C2C1NN=c1s/c(=C\c3ccc(Cl)cc3Cl)c(=O)n12 (configuration not stated) ?
Marked response: inactive

Exam item: Recorded call for O=C(CCC(=O)N/N=C/c1ccccc1O)N/N=C/c1ccccc1O ?
Marked response: inactive

Exam item: Recorded call for COc1ccc(-c2csc(NC(=O)CSc3nc(-c4ccccc4)cc(=O)[nH]3)n2)cc1 ?
Marked response: inactive

Exam item: Recorded call for O=C1/C(=C/c2cccs2)SC(=S)N1CCCN1CCOCC1 ?
Marked response: inactive

Exam item: Recorded call for Oc1c(Cl)cc(Cl)c2ccc(Cn3cc(-c4cc(F)cc(F)c4)nn3)nc12 ?
Marked response: inactive

Exam item: Recorded call for O=S(=O)(Nc1ccccc1)c1ccc(C2CC3(Cl)C(Cl)=C(Cl)C2(Cl)C3(Cl)Cl)cc1 (configuration not stated) ?
Marked response: inactive

Exam item: Recorded call for C=C(C)[C@@H]1CC[C@]2(C(=O)N3CCN(C)CC3)CC[C@]3(C)[C@H](CC[C@@H]4[C@@]5(C)CC(=C/c6ccncc6)/C(=N/O)C(C)(C)[C@@H]5CC[C@]43C)[C@@H]12 ?
Marked response: inactive
